Sequence of the target: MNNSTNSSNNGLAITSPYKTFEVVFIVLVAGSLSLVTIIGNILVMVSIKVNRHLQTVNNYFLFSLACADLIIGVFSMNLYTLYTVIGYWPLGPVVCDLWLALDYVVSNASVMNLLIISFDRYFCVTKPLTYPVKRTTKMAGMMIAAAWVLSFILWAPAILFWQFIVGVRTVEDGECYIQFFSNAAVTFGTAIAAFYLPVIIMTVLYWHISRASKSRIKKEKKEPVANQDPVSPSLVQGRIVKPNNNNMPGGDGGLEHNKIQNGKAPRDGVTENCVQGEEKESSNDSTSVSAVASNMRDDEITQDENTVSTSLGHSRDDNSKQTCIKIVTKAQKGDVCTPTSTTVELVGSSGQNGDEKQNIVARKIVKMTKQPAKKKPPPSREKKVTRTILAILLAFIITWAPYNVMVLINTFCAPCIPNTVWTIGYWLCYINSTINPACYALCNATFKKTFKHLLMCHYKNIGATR
pKi: −log10 of the molar value.
The following compounds were reported with pKi values on the protein given by its sequence in different studies.
OBSERVABLE: pKi

CN[C@@H]1CC[C@@H](c2ccc(Cl)c(Cl)c2)c2ccccc21: 6.63
CN(CCCCCCNCCCCCCCCNCCCCCCN(CN1c2ccccc2C(=O)Nc2cccnc21)CN1c2ccccc2C(=O)Nc2cccnc21)CN1c2ccccc2C(=O)Nc2cccnc21: 9.54
CN(C)CC/C=C1/c2ccccc2COc2ccccc21: 6.15
CCN(CC)CC1CCCCN1CC(=O)N1c2ccccc2C(=O)Nc2cccnc21 (stereo not given): 7.13
CC(=O)N[C@H]1CO[C@H](COS(=O)(=O)O)[C@@H](O[C@@H]2O[C@H](C(=O)O)[C@@H](O[C@H]3O[C@H](CO)[C@@H](O[C@@H]4O[C@@H](C(=O)O)[C@@H](O)[C@H](O)[C@H]4OS(=O)(=O)O)[C@H](OS(=O)(=O)O)[C@H]3NS(=O)(=O)O)[C@H](O)[C@H]2OS(=O)(=O)O)[C@@H]1O: 6.90

[A] CN(C)CCCN1c2ccccc2CCc2ccccc21
[B] CNCCCN1c2ccccc2CCc2ccccc21
[C] COc1ccccc1N1CCN(CCN(C(=O)C2CCCCC2)c2ccccn2)CC1
[D] CCCCN1CCC(CCC(=O)c2cc(Cl)c(N)cc2OC)CC1
[E] N=C(N)NC(=O)c1nc(Cl)c(N2CCCCCC2)nc1N
List items by pKi in falling order. In your reply, arrange the labels in the requested order.
B, A, C, E, D
